# TEST NAME: PK study after oral gavage
# Assay type: in vivo, C57BL/6J mice
# CONDITION NOTES: male, C57BL/6J, mouse, plasma, po, 50 mg/kg, CUR in plasma, n = 6, read-out: Cmax
RECORDED METRIC: Cmax

# COMPOUND, VALUE MEASURED
rows = [
    ("COc1cc(/C=C/C(=O)CC(=O)/C=C/c2ccc(O)c(OC)c2)ccc1O [free-CUR, curcumin]", "~7.13 ng/mL"),
]

====

# TEST NAME: PK study after oral gavage
# Type: in vivo, C57BL/6J mice
# CONDITION NOTES: male, C57BL/6J, mouse, CUR in plasma, 50 mg/kg, n = 6

# MOLECULE, AUC(0-t)
data = [
    ("COc1cc(/C=C/C(=O)CC(=O)/C=C/c2ccc(O)c(OC)c2)ccc1O [free-CUR, curcumin]", "7.68 ng·h/mL"),
]

====

# TEST NAME: PK study after oral gavage
# Assay type: in vivo, C57BL/6J mice
# CONDITION NOTES: male, C57BL/6J, mouse, CUR in plasma, 50 mg/kg, n = 6

# COMPOUND, AUC(0-inf)
measured = [
    ("COc1cc(/C=C/C(=O)CC(=O)/C=C/c2ccc(O)c(OC)c2)ccc1O [free-CUR, curcumin]", "10.4 ng·h/mL"),
]

====

# TEST NAME: PK study after oral gavage
# Assay type: in vivo, C57BL/6J mice
# CONDITION NOTES: male, C57BL/6J, mouse, plasma, 50 mg/kg, n = 6
RECORDED METRIC: half-life (h)

# MOLECULE, UNIT SYMBOL, VALUE MEASURED
records = [
    ("COc1cc(/C=C/C(=O)CC(=O)/C=C/c2ccc(O)c(OC)c2)ccc1O [free-CUR, curcumin]", "h", 1.08),
]

====

# TEST NAME: PK study after oral gavage
# Assay type: in vivo, C57BL/6J mice
# CONDITION NOTES: male, C57BL/6J, mouse, plasma, 50 mg/kg, n = 6
RECORDED METRIC: Tmax

# MOLECULE, RECORDED METRIC, VALUE MEASURED
measured = [
    ("COc1cc(/C=C/C(=O)CC(=O)/C=C/c2ccc(O)c(OC)c2)ccc1O [free-CUR, curcumin]", "Tmax", "30 min"),
]
